- System: Avian myeloblastosis virus
- assayRemarks: Inhibition of AMV reverse transcriptase activity assessed as incorporation of dTMP in poly(rA)-oligo(dT) at 0.1 uM
- Parameters: scale not given: the % may be the effect or the level left
Yes if Activity is below 90%. No if not; exact matches included in No.

Past entries and their recorded results:
O=C1O[C@@H]2[C@@H](OC(=O)c3cc(O)c(O)c(O)c3-c3c1cc(O)c(O)c3O)[C@H](O)O[C@@H]1COC(=O)c3cc(O)c(O)c(O)c3-c3c(O)c(O)c4oc(=O)c5c(c(O)c(O)c6oc(=O)c3c4c65)-c3c(cc(O)c(O)c3O)C(=O)O[C@@H]21 | Yes
O=C(O)C[C@@H]1C(=O)O[C@H]2[C@@H]3OC(=O)c4cc(O)c(O)c(O)c4-c4c(cc(O)c(O)c4O)C(=O)OC[C@H]2O[C@@H](OC(=O)c2cc(O)c(O)c(O)c2)[C@@H]3OC(=O)c2cc(O)c(O)c3c2[C@H]1[C@H](O)C(=O)O3 | No

Hi there! Is Activity for O=C(O[C@H]1O[C@@H]2COC(=O)c3cc(O)c(O)c(O)c3-c3c(cc(O)c(O)c3O)C(=O)O[C@H]2[C@@H]2OC(=O)c3cc(O)c(O)c(O)c3-c3c(cc(O)c(O)c3O)C(=O)O[C@@H]12)c1cc(O)c(O)c(Oc2c(C(=O)O[C@H]3O[C@@H]4COC(=O)c5cc(O)c(O)c(O)c5-c5c(cc(O)c(O)c5O)C(=O)O[C@H]4[C@@H]4OC(=O)c5cc(O)c(O)c(O)c5-c5c(cc(O)c(O)c5O)C(=O)O[C@@H]34)cc(O)c(O)c2O)c1 below 90%, do you know? Yes

Please indicate whether the reported Activity of O=C1OC[C@H]2O[C@@H](O)[C@H](O)[C@@H](O)[C@@H]2OC(=O)c2cc(O)c(O)c(O)c2-c2c(O)c(O)c3oc(=O)c4c(c(O)c(O)c5oc(=O)c2c3c54)-c2c1cc(O)c(O)c2O is strictly below 90%. No

Check if Activity falls below 90% for COc1cc2c[n+](C)c3c4cc5c(cc4ccc3c2cc1OC)OCO5 . Yes

From: ChEMBL document CHEMBL1151661
